Listed next: entries and their corresponding IC50.
targetSystem: human ER-β (Homo sapiens)
Construct: stably transfected with expression vectors for human full-length ER-α or ER-β; expressed in transfected cells
Sequence (Q92731 whole entry): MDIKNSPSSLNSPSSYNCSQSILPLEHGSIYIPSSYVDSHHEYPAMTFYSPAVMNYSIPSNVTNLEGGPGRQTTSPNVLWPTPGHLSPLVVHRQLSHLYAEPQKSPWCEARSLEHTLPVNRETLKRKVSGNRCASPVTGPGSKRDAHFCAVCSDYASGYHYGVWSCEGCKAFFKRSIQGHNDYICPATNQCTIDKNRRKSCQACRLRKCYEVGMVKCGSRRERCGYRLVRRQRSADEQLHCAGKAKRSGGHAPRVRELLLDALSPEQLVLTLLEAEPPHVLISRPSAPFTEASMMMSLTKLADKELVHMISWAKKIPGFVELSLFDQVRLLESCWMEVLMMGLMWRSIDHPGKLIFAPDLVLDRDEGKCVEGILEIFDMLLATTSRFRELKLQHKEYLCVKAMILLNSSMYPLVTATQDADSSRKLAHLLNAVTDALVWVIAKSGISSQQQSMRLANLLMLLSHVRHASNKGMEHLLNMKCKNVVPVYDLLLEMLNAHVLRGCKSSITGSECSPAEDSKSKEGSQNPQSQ
assayExplanation: Inhibition of IL-6 release from U-2 OS osteosarcoma cells stably transfected with human ER-β
Assay type: cell-based
experimentalSetup: IL-6 production (ELISA) after 2.5 ng/ml TNFα and 1 ng/ml IL-1β stimulation, 24 h; compound 0.01–1000 nM; vehicle = 100%; read-out: IC50 (nM) U2 OS (ER-β)

Cc1c(O)ccc2c(Cc3ccc(OCCN4CCCC4)cc3)c(-c3ccc(C(F)(F)F)cc3)c(=O)oc12    < 1000 nM
Cc1cc2c(Cc3ccc(OCCN4CCCC4)cc3)c(-c3ccc(Cl)cc3Cl)c(=O)oc2cc1O    > 1000 nM
N#Cc1c(O)ccc2c(Cc3ccc(OCCN4CCCC4)cc3)c(-c3ccc(C(F)(F)F)cc3)c(=O)oc12    > 1000 nM

We next turn to a different compound, shown below.
Query: What value of IC50 has been recorded for this entry: Cc1c(O)ccc2c(Cc3ccc(OCCN4CCCC4)cc3)c(-c3ccc(Cl)cc3)c(=O)oc12
Response: < 1000 nM

----------
Tested on: MCF-7 breast cancer cells
assayExplanation: Inhibition of 17β-estradiol-dependent MCF-7 breast cancer cell proliferation (3H-thymidine incorporation)
Format: cell-based
experimentalSetup: Homo sapiens, MCF7; with 0.1 nM 17β-estradiol, 72 h, then 3H-thymidine 4 h; compound 0.1–1000 nM
Overview of reported IC50 across a group of compounds:

Use these answered entries as a reference point.
CC(=O)c1cc2c(Cc3ccc(OCCN4CCCC4)cc3)c(-c3ccc(C(F)(F)F)cc3)c(=O)oc2cc1O    > 1000 nM
Cc1c(O)ccc2c(Cc3ccc(OCCN4CCCC4)cc3)c(-c3ccc(Cl)cc3)c(=O)oc12    < 1000 nM

Query: Which IC50 value belongs to O=c1oc2cc(O)c(Br)cc2c(Cc2ccc(OCCN3CCCC3)cc2)c1-c1ccc(C(F)(F)F)cc1 ?
Response: > 1000 nM

Reference source: patent US7247646B2
